// data source = patent US4992257A

# Tested on: Tumour
# Experiment Summary: Degree of tumour necrosis obtained at an equivalent muscle damage level
# Assay type: in vivo
# Conditions: at muscle oedema 10% increase in muscle weight
# Tumour Necrosis listing for each entry below
Hi! Could you send only the number? It should be in mm, unit omitted.

Recorded Tumour Necrosis (molecule Oc1ccc(-c2c3nc(c(-c4ccc(O)cc4)c4ccc([nH]4)c(-c4ccc(O)cc4)c4nc(c(-c5ccc(O)cc5)c5ccc2[nH]5)C=C4)C=C3)cc1 [Para (Compounds of EP-A-0186962), reference compound] ): 2.25

// sample Oc1cccc(-c2c3nc(c(-c4cccc(O)c4)c4ccc([nH]4)c(-c4cccc(O)c4)c4nc(c(-c5cccc(O)c5)c5ccc2[nH]5)C=C4)C=C3)c1 [Meta (Compounds of EP-A-0186962), reference compound] , its Tumour Necrosis was 3.5

Now look at this entry.
Lookup result for `Oc1ccc(-c2c3nc(c(-c4ccc(O)cc4)c4ccc([nH]4)c(-c4ccc(O)cc4)c4nc(c(-c5ccc(O)cc5)c5ccc2[nH]5)CC4)C=C3)cc1` ; measured Tumour Necrosis: 3.5

---

# Experiment Summary: Muscle oedema (muscle damage) for specified depths of tumour necrosis
# Type: in vivo
# Conditions: at depth of tumour necrosis 3.5 mm
Measured Muscle Oedema (% Increase in Weight) values are reported for all entries that follow.
Express your answer in %, writing the number without its unit.

Illustrative cases are given below, each with its answer.
Kindly note the recorded Muscle Oedema (% Increase in Weight) for Oc1cccc(-c2c3nc(c(-c4cccc(O)c4)c4ccc([nH]4)c(-c4cccc(O)c4)c4nc(c(-c5cccc(O)c5)c5[nH]c2CC5)C=C4)C=C3)c1 [Example 2] , which is 2

For record Oc1cccc(-c2c3nc(c(-c4cccc(O)c4)c4ccc([nH]4)c(-c4cccc(O)c4)c4nc(c(-c5cccc(O)c5)c5ccc2[nH]5)C=C4)C=C3)c1 [Meta (Compounds of EP-A-0186962), reference compound] the listed Muscle Oedema (% Increase in Weight) is 10

Muscle Oedema (% Increase in Weight) reported for this compound Oc1ccc(-c2c3nc(c(-c4ccc(O)cc4)c4ccc([nH]4)c(-c4ccc(O)cc4)c4nc(c(-c5ccc(O)cc5)c5ccc2[nH]5)C=C4)C=C3)cc1 [Para (Compounds of EP-A-0186962), reference compound] : 22

Now look at this entry.
Lab note: measured Muscle Oedema (% Increase in Weight) of Oc1ccc(-c2c3nc(c(-c4ccc(O)cc4)c4ccc([nH]4)c(-c4ccc(O)cc4)c4nc(c(-c5ccc(O)cc5)c5ccc2[nH]5)CC4)C=C3)cc1 [Example 1] was 10
